Below is a list of entries, each paired with its recorded Lung uptake value.
System: S180-bearing mice
Test: Bio-distribution in tumor-bearing mice
Type: in vivo
Details: S180-bearing mice, tail vein, 30 min
Procedure: The labeled solution (0.1 mL, 74 KBq) is injected into mice through the tail vein, and the injection time is recorded. Then the mice were killed by cervical dislocation at different time phases (30 minutes, 60 minutes, and 120 minutes), five mice for each time phase, and the organs of interest such as heart, liver, lung, kidney, spleen, stomach, muscle, blood and tumor are taken out after dissection, and measured with a γ-counter for the radioactive count of each organ. […]
parameter-measured: Lung uptake (% ID/g)

compound	quantitative-result
O=C(CC[N+]#[C][99Tc-5]([C]#[N+]CCC(=O)NC1C(O)OC(CO)C(O)C1O)([C]#[N+]CCC(=O)NC1C(O)OC(CO)C(O)C1O)([C]#[N+]CCC(=O)NC1C(O)OC(CO)C(O)C1O)([C]#[N+]CCC(=O)NC1C(O)OC(CO)C(O)C1O)[C]#[N+]CCC(=O)NC1C(O)OC(CO)C(O)C1O)NC1C(O)OC(CO)C(O)C1O (stereo not shown) [[^99mTc-(CN2DG)6]^+]	0.94
O=C(CCCC[N+]#[C][99Tc-5]([C]#[N+]CCCCC(=O)NC1C(O)OC(CO)C(O)C1O)([C]#[N+]CCCCC(=O)NC1C(O)OC(CO)C(O)C1O)([C]#[N+]CCCCC(=O)NC1C(O)OC(CO)C(O)C1O)([C]#[N+]CCCCC(=O)NC1C(O)OC(CO)C(O)C1O)[C]#[N+]CCCCC(=O)NC1C(O)OC(CO)C(O)C1O)NC1C(O)OC(CO)C(O)C1O (stereo not shown) [[^99mTc-(CN4DG)6]^+]	1.75
O=C(CCCCC[N+]#[C][99Tc-5]([C]#[N+]CCCCCC(=O)NC1C(O)OC(CO)C(O)C1O)([C]#[N+]CCCCCC(=O)NC1C(O)OC(CO)C(O)C1O)([C]#[N+]CCCCCC(=O)NC1C(O)OC(CO)C(O)C1O)([C]#[N+]CCCCCC(=O)NC1C(O)OC(CO)C(O)C1O)[C]#[N+]CCCCCC(=O)NC1C(O)OC(CO)C(O)C1O)NC1C(O)OC(CO)C(O)C1O (stereo not shown) [[^99mTc-(CN5DG)6]^+]	1.58
O=C(CCC[N+]#[C][99Tc-5]([C]#[N+]CCCC(=O)NC1C(O)OC(CO)C(O)C1O)([C]#[N+]CCCC(=O)NC1C(O)OC(CO)C(O)C1O)([C]#[N+]CCCC(=O)NC1C(O)OC(CO)C(O)C1O)([C]#[N+]CCCC(=O)NC1C(O)OC(CO)C(O)C1O)[C]#[N+]CCCC(=O)NC1C(O)OC(CO)C(O)C1O)NC1C(O)OC(CO)C(O)C1O (stereo not shown) [[^99mTc-(CN3DG)6]^+]	0.78

* * *

System: S180-bearing mice
Experiment: Bio-distribution in tumor-bearing mice
Assay type: in vivo
Details: S180-bearing mice, tail vein, 60 min
Procedure: The labeled solution (0.1 mL, 74 KBq) is injected into mice through the tail vein, and the injection time is recorded. Then the mice were killed by cervical dislocation at different time phases (30 minutes, 60 minutes, and 120 minutes), five mice for each time phase, and the organs of interest such as heart, liver, lung, kidney, spleen, stomach, muscle, blood and tumor are taken out after dissection, and measured with a γ-counter for the radioactive count of each organ. […]

compound	Tumor/muscle ratio
O=C(CC[N+]#[C][99Tc-5]([C]#[N+]CCC(=O)NC1C(O)OC(CO)C(O)C1O)([C]#[N+]CCC(=O)NC1C(O)OC(CO)C(O)C1O)([C]#[N+]CCC(=O)NC1C(O)OC(CO)C(O)C1O)([C]#[N+]CCC(=O)NC1C(O)OC(CO)C(O)C1O)[C]#[N+]CCC(=O)NC1C(O)OC(CO)C(O)C1O)NC1C(O)OC(CO)C(O)C1O (stereo not shown) [[^99mTc-(CN2DG)6]^+]	6.25
